In this section we review reported protein stability index values for a set of variants.
B1: TEKT4 (parent)
chain: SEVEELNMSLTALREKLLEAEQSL

Variants of: B1
experimental-details: protein stability index of a GFP-peptide fusion (GPS, HEK-293T) (PSI 1-6); higher = more stable;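 note: lentivirally expressed fusions sorted by FACS into six bins by GFP to DsRed ratio, PSI derived from sequencing read proportions per bin multiplied by bin number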
condition-info: c terminus: a fixed tail appended
assay-endpoint: protein stability index

>>> print(df.to_string())
                    sequence  reported_measurement
 0  SEVEELNMSKTALREKLLEAEQSL                  3.73
 1  SEVEELNMSLTALREKLLEAEYSL                  1.94
 2  SEVEPLNMSLTALREKLLEAEQSL                  2.63
 3  SEVEELNMSLTALREKTLEAEQSL                  5.16
 4  SEVEELNMSWTALREKLLEAEQSL                  2.68
 5  SEVEELNMSLTALRENLLEAEQSL                  1.72
 6  SEVEELNMSLTALREKLLEAEGSL                   3.6
 7  SEVEELNMSLTALREKFLEAEQSL                  3.69
 8  SEVEELNMSLTAVREKLLEAEQSL                  4.55
 9  SEVEELNMSLTALREKLLEAIQSL                  2.06
10  SEVEELNMSLTALREKLLTAEQSL                   3.6
11  YEVEELNMSLTALREKLLEAEQSL                  2.31
12  SEVEELNMSSTALREKLLEAEQSL                  3.64
13  SEVEELNMSLTALREKLVEAEQSL                  3.94
14  SEVEELNMSLTALREKLLSAEQSL                  3.41
15  SEVEELNMSLTALREGLLEAEQSL                  3.58
16  SEVEELNMSLTALDEKLLEAEQSL                  5.52
17  SEVEELGMSLTALREKLLEAEQSL                  2.94
18  SSVEELNMSLTALREKLLEAEQSL                  2.34
19  SKVEELNMSLTALREKLLEAEQSL                  2.19
20  SEVEELNMSLTALREKLLEAEQHL                  2.31
21  SEVEELNMSLTAWREKLLEAEQSL                  3.18
22  SEVEELNMSLTALREKLLVAEQSL                  3.66
23  FEVEELNMSLTALREKLLEAEQSL                  2.31
24  SEVEELNMSLTALREKILEAEQSL                  4.28
